These entries and their values trace back to patent US9918990B2.

# Experimental Target: BRD4-BD1 (Homo sapiens (Human), UniProt O60885)
# Method: BRD4 AlphaScreen assay, BRD4-BD1
# Measurement Setup: H4Ac4 peptide, 75 min, room temperature, read-out: BRD4 BD-1 enzyme IC50
pIC50: −log10 of the molar value.
Observable: pIC50

What value of pIC50 on BRD4-BD1 (Homo sapiens (Human), UniProt O60885) does Cn1cc(-c2ccc3c(c2OCC2CCC2)n(CCC#N)c(=O)n3C)c2cc[nH]c2c1=O [Example 62] have?
> 7.00

What value of pIC50 on BRD4-BD1 (Homo sapiens (Human), UniProt O60885) does CN1C(=O)COc2ccc(-c3cn(C)c(=O)c4[nH]ccc34)c(Oc3ccccc3)c21 [Example 100] have?
6.00 to 7.00

What value of pIC50 on BRD4-BD1 (Homo sapiens (Human), UniProt O60885) does Cn1cc(-c2ccc3c(ncn3CCC#N)c2Oc2ccccc2)c2cc[nH]c2c1=O [Example 113] have?
> 7.00

What value of pIC50 on BRD4-BD1 (Homo sapiens (Human), UniProt O60885) does Cn1cc(-c2ccc3oc(CNC(=O)C4CC4)nc3c2Oc2ccccc2)c2cc[nH]c2c1=O [Example 108] have?
> 7.00

----------
# Experimental Target: BRD4-BD2 (Homo sapiens (Human), UniProt O60885)
# Method: BRD4 AlphaScreen assay, BRD4-BD2
# Measurement Setup: H4Ac4 peptide, 75 min, room temperature, read-out: BRD4 BD-2 enzyme IC50
pIC50: −log10 of the molar value.
Observable: pIC50

For Cn1cc(-c2ccc3oc(CNC(=O)C4CC4)nc3c2Oc2ccccc2)c2cc[nH]c2c1=O , what is its reported pIC50?
> 7.00

For CN1C(=O)COc2ccc(-c3cn(C)c(=O)c4[nH]ccc34)c(Oc3ccccc3)c21 , what is its reported pIC50?
> 7.00

For Cn1cc(-c2ccc3c([nH]c(=O)n3C)c2Oc2cccc(F)c2)c2cc[nH]c2c1=O , what is its reported pIC50?
> 7.00

----------
# Experimental Target: BRD4-BD1 (Homo sapiens (Human), UniProt O60885)
# Method: BRD4 AlphaScreen assay, BRD4-BD1
# Measurement Setup: H4Ac4 peptide, 75 min, room temperature, read-out: BRD4 BD-1 enzyme IC50
pIC50: −log10 of the molar value. Where a name gives a salt, the structure may show the parent alone.
Observable: pIC50

For COc1c(-c2cn(C)c(=O)c3[nH]ccc23)ccc2c1n(CCc1ccccc1)c(=O)n2C , what is its reported pIC50?
6.00 to 7.00

For Cn1cc(-c2ccc3c(c2Oc2ccccc2)NC(=O)CO3)c2cc[nH]c2c1=O , what is its reported pIC50?
> 7.00

For Cn1cc(-c2ccc3[nH]c(=O)[nH]c3c2Oc2ccc(F)cc2F)c2cn[nH]c2c1=O , what is its reported pIC50?
> 7.00

For Cn1cc(-c2ccc3c(ncn3CCCC#N)c2Oc2ccccc2)c2cc[nH]c2c1=O , what is its reported pIC50?
> 7.00

For CCSc1c(-c2cn(C)c(=O)c3[nH]ccc23)ccc2c1[nH]c(=O)n2C , what is its reported pIC50?
> 7.00

For CN1CCN(CCn2c(=O)n(C)c3ccc(-c4cn(C)c(=O)c5[nH]ccc45)c(OCC4CCC4)c32)CC1 , what is its reported pIC50?
> 7.00

For Cn1cnc2c(Oc3ccc(F)cc3F)c(-c3cn(Cc4ccccc4)c(=O)c4[nH]ccc34)ccc21 [Example 84, trifluoroacetate] , what is its reported pIC50?
5.00 to 6.00

For Cn1cc(-c2ccc3c(ncn3CCc3ccccc3)c2Oc2ccccc2)c2cc[nH]c2c1=O , what is its reported pIC50?
> 7.00

----------
For each entry below, report its IC50 value.
# Experimental Target: BRD4-BD1 (Homo sapiens (Human), UniProt O60885)
# Method: BRD4 AlphaScreen assay, BRD4-BD1
# Measurement Setup: H4Ac4 peptide, 75 min, room temperature, read-out: BRD4 BD-1 enzyme IC50
Counter-ions that a name gives are not always drawn.

For CC(=O)NCc1nc2c(Oc3ccccc3)c(-c3cn(C)c(=O)c4[nH]ccc34)ccc2o1 , what is its reported IC50?
< 0.1 µM

For Cn1cc(-c2ccc3c(c2Oc2ccccc2)NC(=O)C(C)(C)O3)c2cc[nH]c2c1=O , what is its reported IC50?
< 0.1 µM

For Cn1cc(-c2ccc3c(ncn3Cc3ccccc3)c2Oc2ccccc2)c2cc[nH]c2c1=O , what is its reported IC50?
< 0.1 µM

For COc1c(-c2cn(C)c(=O)c3[nH]ccc23)ccc2c1n(CCCC#N)c(=O)n2C , what is its reported IC50?
0.1 to 1 µM

For Cn1cc(-c2ccc3[nH]c(=O)[nH]c3c2OC2CCCOC2)c2cc[nH]c2c1=O (centres unmarked) , what is its reported IC50?
< 0.1 µM

For Cn1cc(-c2ccc3c([nH]c(=O)n3C)c2Oc2ccccc2)c2cc[nH]c2c1=O , what is its reported IC50?
< 0.1 µM

For Cn1cc(-c2ccc3c(c2Oc2ccccc2)N(CCN2CCOCC2)C(=O)CO3)c2cc[nH]c2c1=O [Example 102, trifluoroacetate] , what is its reported IC50?
0.1 to 1 µM

For Cn1cc(-c2ccc3ncn(CC(=O)N4CCOCC4)c3c2Oc2ccc(F)cc2F)c2cc[nH]c2c1=O , what is its reported IC50?
< 0.1 µM
